// Percent Effect lookup, one value per entry
Molecular target: AMP-activated protein kinase, AMPK (Homo sapiens) (UniProt P54646+O43741+P54619+Q9UGJ0+Q9Y478+Q13131+Q9UGI9)
Assay: AMP-dependent Kinase enzyme assay. An in vitro enzyme assay that detects ADP turnover that is directly proportional to AMPK activity. This uses naive AMPK that is activated during the assay with MK-8722
Type: functional
Set-up: scale not given: direction of the effect not stated beside the values
Settings: 30 µM
State just the number; it will be interpreted in %.

MOLECULE: CCCn1nc(C2CCNCC2)n(Cc2ccccc2)c1=O
VALUE UNITS: %
Percent Effect: -3.97
--
MOLECULE: Cc1ccccc1Oc1ncccc1CNS(C)(=O)=O
VALUE UNITS: %
Percent Effect: -0.858
--
MOLECULE: CN(C)C(C(=O)N1CCC(N2CCSCC2)CC1)c1ccccc1F (stereo unspecified)
VALUE UNITS: %
Percent Effect: -3.64

Which Percent Effect value belongs to CC(=O)Nc1nc(C(=O)N2CCCC(n3ccnc3)C2)cs1 (stereo unspecified) ?
-5.64

Which Percent Effect value belongs to `CC(C)CNC(=O)[C@H]1CCS(=O)(=O)[C@@H]2CN(Cc3cccc(Cl)c3)C[C@H]12` ?
6.38

Which Percent Effect value belongs to Cc1cnn(CCCNC(=O)N2CCCCC(N3CCCC3)C2)c1 (stereo unspecified) ?
0.679

Which Percent Effect value belongs to `Cc1ccc(C(=O)N2CCc3c(CNS(C)(=O)=O)cncc3C2)o1` ?
5.83

Which Percent Effect value belongs to Cc1cc(C2CCCN(C(=O)CN3CCN(C)CC3)C2)n[nH]1 (stereo unspecified) ?
-4.16

---

// Percent Effect lookup, one value per entry
Target: Chromo domain-containing protein 1 (Saccharomyces cerevisiae (strain ATCC 204508 / S288c) (Baker's yeast)) (UniProt P32657)
Sequence (P32657 whole entry, the tested form may be a part): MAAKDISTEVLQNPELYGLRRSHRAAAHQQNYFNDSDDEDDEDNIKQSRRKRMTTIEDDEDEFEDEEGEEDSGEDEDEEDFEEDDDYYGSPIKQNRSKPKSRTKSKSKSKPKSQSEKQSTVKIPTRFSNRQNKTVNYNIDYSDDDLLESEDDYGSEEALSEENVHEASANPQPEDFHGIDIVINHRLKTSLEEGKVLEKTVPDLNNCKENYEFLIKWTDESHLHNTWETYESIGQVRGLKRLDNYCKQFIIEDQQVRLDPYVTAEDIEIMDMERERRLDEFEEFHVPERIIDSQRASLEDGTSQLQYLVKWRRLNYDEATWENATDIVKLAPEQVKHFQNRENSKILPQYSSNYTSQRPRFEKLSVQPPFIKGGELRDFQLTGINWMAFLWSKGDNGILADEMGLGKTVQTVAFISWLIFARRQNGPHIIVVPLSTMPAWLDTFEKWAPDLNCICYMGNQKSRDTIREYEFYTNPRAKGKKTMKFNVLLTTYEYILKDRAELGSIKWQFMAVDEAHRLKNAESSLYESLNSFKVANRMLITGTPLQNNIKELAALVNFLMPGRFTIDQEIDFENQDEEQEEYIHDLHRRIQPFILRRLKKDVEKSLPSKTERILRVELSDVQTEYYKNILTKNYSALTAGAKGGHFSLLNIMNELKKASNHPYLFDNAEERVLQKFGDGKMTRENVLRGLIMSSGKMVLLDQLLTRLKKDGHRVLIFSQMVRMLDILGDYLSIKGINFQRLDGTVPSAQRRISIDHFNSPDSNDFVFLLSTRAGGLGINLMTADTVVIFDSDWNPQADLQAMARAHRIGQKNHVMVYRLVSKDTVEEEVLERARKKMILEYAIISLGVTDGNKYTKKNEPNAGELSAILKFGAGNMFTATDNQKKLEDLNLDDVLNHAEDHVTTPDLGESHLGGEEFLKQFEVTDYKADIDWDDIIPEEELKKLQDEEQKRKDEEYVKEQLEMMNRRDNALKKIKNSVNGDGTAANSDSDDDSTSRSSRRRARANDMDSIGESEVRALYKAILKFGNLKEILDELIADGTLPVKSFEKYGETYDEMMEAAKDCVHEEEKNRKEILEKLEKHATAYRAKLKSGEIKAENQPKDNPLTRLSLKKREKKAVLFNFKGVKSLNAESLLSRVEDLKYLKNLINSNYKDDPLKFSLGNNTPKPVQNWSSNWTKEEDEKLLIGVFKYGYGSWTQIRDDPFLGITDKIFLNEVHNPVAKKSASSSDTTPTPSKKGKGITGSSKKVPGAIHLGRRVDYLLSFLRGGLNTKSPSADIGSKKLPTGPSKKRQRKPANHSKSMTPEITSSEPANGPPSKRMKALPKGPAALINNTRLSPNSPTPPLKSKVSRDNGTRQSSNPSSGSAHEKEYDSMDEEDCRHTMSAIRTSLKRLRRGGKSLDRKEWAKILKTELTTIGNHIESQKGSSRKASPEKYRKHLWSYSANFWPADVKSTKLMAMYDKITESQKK
Assay: ScCHD-1 Enzyme Inhibition Assay; also: in the data most compounds retested in dose-response had high values
Format: functional
Design: scale not given: direction of the effect not stated beside the values
Conditions: 30 µM
State just the number; it will be interpreted in %.

COMPOUND: CCOC(=O)CCC(=O)N1CCC(Oc2ccc(C(F)(F)F)cn2)CC1
VALUE UNITS: %
Percent Effect: -5.92

COMPOUND: CCc1cc(=O)[nH]c2nnc(SCC(=O)OC)n12
VALUE UNITS: %
Percent Effect: -6.44

COMPOUND: CC(C(=O)NCc1ccc(N2CCNC(=O)C2)cc1)n1cncn1 (stereo unspecified)
VALUE UNITS: %
Percent Effect: -12.2

COMPOUND: Cc1oc(C)c(C(=O)NCc2ccccn2)c1C
VALUE UNITS: %
Percent Effect: -5.27

Which Percent Effect value belongs to O=C(Nc1cccc(OCc2cccc(F)c2)c1)C1COCCO1 (stereo unspecified) ?
-6.84

Which Percent Effect value belongs to `Cc1nnc(NC(=O)NCc2ccc(N3CCN(C)CC3)nc2)s1` ?
-9.38

---

// Percent Effect lookup, one value per entry
Molecular target: AMP-activated protein kinase, AMPK (Homo sapiens) (UniProt P54646+O43741+P54619+Q9UGJ0+Q9Y478+Q13131+Q9UGI9)
Experiment: AMP-dependent Kinase enzyme assay. An in vitro enzyme assay that detects ADP turnover that is directly proportional to AMPK activity. This uses naive AMPK that is activated during the assay with MK-8722
Type: functional
Set-up: scale not given: direction of the effect not stated beside the values
Conditions: 30 µM

Reference set, count: 5
COMPOUND: CN(Cc1ccsc1)C(=O)Nc1cccnc1N1CCCC1
Percent Effect: -31.4%
//
COMPOUND: CCOC1CCCN(C(=O)c2cnc3c(cnn3C3CCCC3)c2)C1 (configuration not stated)
Percent Effect: 2.09%
//
COMPOUND: CCn1nnc2c1C(COC)CN(C(=O)COc1ccccc1)C2 (configuration not stated)
Percent Effect: -1.01%
//
COMPOUND: CC(NC(=O)NCc1ccoc1)c1ccc2c(c1)CCC(=O)N2 (configuration not stated)
Percent Effect: -9.15%
//
COMPOUND: O=C(NCc1ccco1)[C@H]1C[C@H]2OCC[C@H]2N(S(=O)(=O)C2CC2)C1
Percent Effect: -0.23%

Which Percent Effect value belongs to CN(Cc1cccc(F)c1)C(=O)CN1CCCC1CCc1ccccc1 (configuration not stated) ?
2.67%

Which Percent Effect value belongs to CC(O)CN1CCN(C(=O)c2cnn(-c3ccccc3F)c2)CC1 (configuration not stated) ?
-6.53%

Which Percent Effect value belongs to `O=C(NCc1cnc2n1CCN(Cc1ccsc1)CC2)C1CCC1` ?
-0.353%

Which Percent Effect value belongs to `Cc1ccccc1C(=O)NCc1ccc(N2CCNC(=O)C2)c(F)c1` ?
-2.71%

---

Molecular target: Tyrosyl-tRNA synthetase, putative (Trypanosoma cruzi (strain CL Brener)) (UniProt Q4DSP6)
Sequence (Q4DSP6 as listed by the source): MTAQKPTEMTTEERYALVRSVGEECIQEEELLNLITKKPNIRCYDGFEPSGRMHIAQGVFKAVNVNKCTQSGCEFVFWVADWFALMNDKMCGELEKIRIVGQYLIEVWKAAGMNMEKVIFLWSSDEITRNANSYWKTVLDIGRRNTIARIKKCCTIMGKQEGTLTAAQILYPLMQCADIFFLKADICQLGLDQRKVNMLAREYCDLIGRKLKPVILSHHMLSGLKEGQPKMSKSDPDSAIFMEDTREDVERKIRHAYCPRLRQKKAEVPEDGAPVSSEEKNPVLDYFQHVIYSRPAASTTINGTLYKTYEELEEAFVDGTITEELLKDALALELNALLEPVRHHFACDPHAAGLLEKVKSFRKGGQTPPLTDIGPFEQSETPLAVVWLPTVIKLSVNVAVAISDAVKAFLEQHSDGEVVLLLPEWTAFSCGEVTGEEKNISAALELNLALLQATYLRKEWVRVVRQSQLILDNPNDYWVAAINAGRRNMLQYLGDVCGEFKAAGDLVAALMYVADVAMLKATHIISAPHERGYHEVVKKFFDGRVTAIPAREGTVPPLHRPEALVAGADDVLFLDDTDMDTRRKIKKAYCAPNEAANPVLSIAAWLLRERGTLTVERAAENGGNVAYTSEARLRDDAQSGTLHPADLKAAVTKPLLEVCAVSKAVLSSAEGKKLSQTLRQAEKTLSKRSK
Experiment: Trypanosoma cruzi tyrosyl tRNA synthetase (TcYRS) SOP
Format: functional
Parameters: scale not given: direction of the effect not stated beside the values
Conditions: 30 µM
Label MET when Percent Effect is strictly below 10%; at or above that, label NOT MET.

Here are 3 compounds together with their reported answers.
COMPOUND: COc1ccccc1N1CCC(CNCc2cccc(C#N)c2)C1 (centres undefined)
LABEL VALUE: NOT MET
--
COMPOUND: CN1CCC(NC(=O)NCc2csc(Br)c2)CC1
LABEL VALUE: NOT MET
--
COMPOUND: c1ccc(CN2CC[C@@H]3O[C@H](COCc4ccncc4)CC[C@@H]32)nc1
LABEL VALUE: MET

A record lists O=S(=O)(c1ccccc1)N1CCC2(CCCN2CC2CCCC2)C1 (centres undefined) . Is its Percent Effect below 10%?
MET

A record lists `N#Cc1ccccc1N1CCCN(C(=O)CCn2cccn2)CC1` . Is its Percent Effect below 10%?
NOT MET

A record lists `O=C(NCCC(=O)N1CCCCCC1)c1c(O)cc(F)cc1F` . Is its Percent Effect below 10%?
NOT MET

---

Biological target: AMP-activated protein kinase, AMPK (Homo sapiens) (UniProt P54646+O43741+P54619+Q9UGJ0+Q9Y478+Q13131+Q9UGI9)
Assay: AMP-dependent Kinase enzyme assay. An in vitro enzyme assay that detects ADP turnover that is directly proportional to AMPK activity. This uses naive AMPK that is activated during the assay with MK-8722
Format: functional
Parameters: scale not given: direction of the effect not stated beside the values
Conditions: 30 µM
MEASURED ENDPOINT: Percent Effect (%)
State just the number; it will be interpreted in %.

COMPOUND: O=C(NCCn1ccnc1)c1cccc(F)c1
VALUE UNITS: %
Percent Effect: -6.48
--
COMPOUND: COCC1CN(Cc2ccc(C)o2)Cc2nnn(CC3CC3)c21 (stereo unspecified)
VALUE UNITS: %
Percent Effect: 4.37
--
COMPOUND: Cc1cc(CN(C)C(=O)NC(C)c2nncn2C)no1 (stereo unspecified)
VALUE UNITS: %
Percent Effect: -8.88

Which Percent Effect value belongs to `COCCN1CCc2cc(C(=O)N(C)C)c(NC(C)C)nc2CC1` ?
-3.33

Which Percent Effect value belongs to Cc1ccc(N2CCCC(NCc3cccc4c3OCCO4)C2)nn1 (stereo unspecified) ?
-11.3

Which Percent Effect value belongs to `Cc1ccccc1C1(CNC(=O)NCCc2nnc3n2CCC3)CC1` ?
-101

---

Molecular target: AMP-activated protein kinase, AMPK (Homo sapiens) (UniProt P54646+O43741+P54619+Q9UGJ0+Q9Y478+Q13131+Q9UGI9)
Test: AMP-dependent Kinase enzyme assay. An in vitro enzyme assay that detects ADP turnover that is directly proportional to AMPK activity. This uses naive AMPK that is activated during the assay with MK-8722
Assay type: functional
Design: scale not given: direction of the effect not stated beside the values
Conditions: 30 µM
// Percent Effect lookup, one value per entry
State just the number; it will be interpreted in %.

Reference set, count: 8
MOLECULE: COC(=O)c1ccc(N2CCN(CCN3CCOCC3)C(C)C2)cc1 (configuration not stated)
Percent Effect, %: -5.32
//
MOLECULE: O=C(C1CCOCC1)N1CCC2(CC1)CC(Oc1ccccc1)CO2 (configuration not stated)
Percent Effect, %: -6.45
//
MOLECULE: COC(CNC(=O)N1CCC(n2cncn2)CC1)c1ccccc1 (configuration not stated)
Percent Effect, %: 13.4
//
MOLECULE: CCNC(=O)c1nnn(Cc2ccccc2)c1OC
Percent Effect, %: 3.51
//
MOLECULE: O=C(c1ccc(Br)s1)N1CCN(Cc2ccc(OC(F)(F)F)cc2)CC1
Percent Effect, %: 41.1
//
MOLECULE: CCNc1cc2c(nn1)CCN(C(=O)c1ccc3cc[nH]c3c1)C2
Percent Effect, %: 1.7
//
MOLECULE: CSCC(CCO)NC(=O)Nc1cc(C)ccc1C (configuration not stated)
Percent Effect, %: 0.417
//
MOLECULE: Cn1cnnc1C1CCCN(C(=O)c2n[nH]c3ccccc23)C1 (configuration not stated)
Percent Effect, %: -8.06

Which Percent Effect value belongs to `Cn1cc(-c2csc(N3CCN(C(=O)OC(C)(C)C)CC3)n2)cn1` ?
-13.6

Which Percent Effect value belongs to `CS(=O)(=O)c1ccc(CNCC2CCN(CCO)CC2)cc1` ?
-13.5

Which Percent Effect value belongs to CC(C)Oc1cccc(CNC(=O)NC(C)(C(=O)O)c2ccco2)c1 (configuration not stated) ?
-1.29

Which Percent Effect value belongs to `CN(Cc1ccco1)Cc1ccccc1CNC(=O)c1ccncc1` ?
13.1
